# target: Recombinant, full length human FLAG-tagged ATM (Homo sapiens (Human))
# Sequence (Q13315 whole entry): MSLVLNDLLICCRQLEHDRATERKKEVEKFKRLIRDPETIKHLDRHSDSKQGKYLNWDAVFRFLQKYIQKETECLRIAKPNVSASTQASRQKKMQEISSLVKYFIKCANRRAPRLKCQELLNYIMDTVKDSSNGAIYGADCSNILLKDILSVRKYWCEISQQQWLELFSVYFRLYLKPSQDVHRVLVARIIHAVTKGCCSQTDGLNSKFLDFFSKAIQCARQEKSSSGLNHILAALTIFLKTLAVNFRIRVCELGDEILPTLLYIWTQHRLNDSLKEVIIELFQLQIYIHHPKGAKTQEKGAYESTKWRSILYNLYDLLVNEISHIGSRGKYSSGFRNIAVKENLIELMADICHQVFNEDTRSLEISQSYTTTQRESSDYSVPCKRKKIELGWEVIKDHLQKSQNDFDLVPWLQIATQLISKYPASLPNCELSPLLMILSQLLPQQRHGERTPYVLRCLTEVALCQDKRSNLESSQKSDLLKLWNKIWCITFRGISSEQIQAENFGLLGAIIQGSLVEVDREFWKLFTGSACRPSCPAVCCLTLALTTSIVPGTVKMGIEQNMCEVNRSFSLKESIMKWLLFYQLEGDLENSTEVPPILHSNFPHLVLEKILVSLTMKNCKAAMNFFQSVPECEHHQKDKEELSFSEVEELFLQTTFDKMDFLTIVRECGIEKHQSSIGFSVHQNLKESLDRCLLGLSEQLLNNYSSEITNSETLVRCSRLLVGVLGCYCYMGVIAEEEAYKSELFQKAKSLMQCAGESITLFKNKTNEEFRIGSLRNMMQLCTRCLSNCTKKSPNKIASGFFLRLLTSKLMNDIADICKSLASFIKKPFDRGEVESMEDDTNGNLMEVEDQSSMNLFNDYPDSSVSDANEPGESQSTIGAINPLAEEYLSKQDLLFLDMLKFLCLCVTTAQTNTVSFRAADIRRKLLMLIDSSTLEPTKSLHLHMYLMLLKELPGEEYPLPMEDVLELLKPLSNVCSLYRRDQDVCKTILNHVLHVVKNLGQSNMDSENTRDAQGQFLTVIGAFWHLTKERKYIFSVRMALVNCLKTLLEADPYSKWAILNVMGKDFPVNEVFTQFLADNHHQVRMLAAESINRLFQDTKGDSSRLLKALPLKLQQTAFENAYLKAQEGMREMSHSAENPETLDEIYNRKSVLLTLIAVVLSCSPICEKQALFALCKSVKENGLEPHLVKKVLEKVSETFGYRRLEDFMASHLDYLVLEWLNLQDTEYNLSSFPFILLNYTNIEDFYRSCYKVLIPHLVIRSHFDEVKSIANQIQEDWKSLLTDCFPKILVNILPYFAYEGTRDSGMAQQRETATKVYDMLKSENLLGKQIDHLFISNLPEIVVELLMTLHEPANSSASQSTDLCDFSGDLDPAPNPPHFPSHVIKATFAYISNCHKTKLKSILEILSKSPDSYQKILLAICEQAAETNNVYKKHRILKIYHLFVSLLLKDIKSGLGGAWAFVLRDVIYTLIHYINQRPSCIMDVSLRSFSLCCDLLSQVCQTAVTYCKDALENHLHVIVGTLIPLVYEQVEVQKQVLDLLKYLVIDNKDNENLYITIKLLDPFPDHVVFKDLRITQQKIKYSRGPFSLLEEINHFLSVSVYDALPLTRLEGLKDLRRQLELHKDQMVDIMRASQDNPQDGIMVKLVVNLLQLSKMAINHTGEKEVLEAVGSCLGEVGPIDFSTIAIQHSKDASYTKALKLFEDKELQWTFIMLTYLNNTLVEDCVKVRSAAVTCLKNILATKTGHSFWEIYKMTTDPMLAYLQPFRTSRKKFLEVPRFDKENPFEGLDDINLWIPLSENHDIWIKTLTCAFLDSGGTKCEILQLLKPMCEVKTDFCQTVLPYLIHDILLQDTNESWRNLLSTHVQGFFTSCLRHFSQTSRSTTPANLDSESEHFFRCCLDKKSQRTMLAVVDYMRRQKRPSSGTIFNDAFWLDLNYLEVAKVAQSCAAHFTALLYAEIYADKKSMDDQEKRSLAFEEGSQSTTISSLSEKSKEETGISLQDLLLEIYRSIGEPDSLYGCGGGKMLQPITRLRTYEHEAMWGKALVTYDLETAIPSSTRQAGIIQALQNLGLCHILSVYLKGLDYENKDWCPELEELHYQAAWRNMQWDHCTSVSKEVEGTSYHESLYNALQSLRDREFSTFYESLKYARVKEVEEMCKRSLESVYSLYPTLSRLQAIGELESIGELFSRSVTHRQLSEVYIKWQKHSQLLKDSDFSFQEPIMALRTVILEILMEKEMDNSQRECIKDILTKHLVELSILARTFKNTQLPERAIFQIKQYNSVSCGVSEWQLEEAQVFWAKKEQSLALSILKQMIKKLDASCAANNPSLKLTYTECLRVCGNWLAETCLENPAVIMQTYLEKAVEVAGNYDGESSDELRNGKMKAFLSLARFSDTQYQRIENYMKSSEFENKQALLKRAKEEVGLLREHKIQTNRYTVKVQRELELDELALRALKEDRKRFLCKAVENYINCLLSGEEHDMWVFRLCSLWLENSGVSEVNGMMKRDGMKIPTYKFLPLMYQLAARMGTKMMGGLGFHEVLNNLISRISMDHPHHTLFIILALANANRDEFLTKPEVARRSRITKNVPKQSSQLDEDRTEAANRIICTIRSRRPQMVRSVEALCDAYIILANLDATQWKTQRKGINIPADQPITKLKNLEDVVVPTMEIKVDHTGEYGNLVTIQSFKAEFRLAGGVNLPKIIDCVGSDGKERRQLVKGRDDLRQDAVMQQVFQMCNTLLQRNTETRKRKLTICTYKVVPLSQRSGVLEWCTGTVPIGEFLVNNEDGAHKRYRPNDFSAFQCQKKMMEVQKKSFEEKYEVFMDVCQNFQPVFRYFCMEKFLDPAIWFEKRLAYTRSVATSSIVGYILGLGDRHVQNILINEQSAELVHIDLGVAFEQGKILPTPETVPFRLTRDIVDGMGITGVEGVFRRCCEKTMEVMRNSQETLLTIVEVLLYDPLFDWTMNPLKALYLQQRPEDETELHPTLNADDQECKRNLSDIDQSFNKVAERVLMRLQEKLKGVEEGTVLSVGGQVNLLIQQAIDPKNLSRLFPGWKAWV
# test-name: ATM ELISA for p53 S15 phosphorylation
# experimental-context: 0.75 nM ATM, 25 nM p53, 10 μM ATP, 30 min at 20° C.; read-out: ATM BIO IC50
Can you tell me IC50 for the items I'm about to list?

Consider the following items and state reported IC50 for each.
1. CC1(C)CCCN(c2nc(N3CCOCC3)cc(=O)[nH]2)[C@@H](Cc2ccccc2)C1 [Example 242]
2. COc1ccccc1C[C@H]1[C@@H]2C[C@@H]2CN1c1cc(N2CCOCC2)cc(=O)[nH]1 [Example 126]
3. C[C@@H]1CN(c2cc(=O)[nH]c(N3CCCCC[C@@H]3Cc3cccc(F)c3F)n2)CCO1 [Example 300]
4. Cc1cc(C[C@H]2CCCN2c2nc(N3CCO[C@H](C)C3)cc(=O)[nH]2)cc(C)n1 [Example 277]

Response given:
["84.5 nM", "6.9 nM", "93.7 nM", "57 nM"]

Consider the following items and state reported IC50 for each.
1. COc1ccccc1C[C@H]1CCCCCN1c1cc(N2CCOCC2)cc(=O)[nH]1 [Example 27]
2. O=c1cc(N2CCOCC2)cc(N2CCCCC[C@@H]2Cc2ccccc2F)[nH]1 [Example 78]
3. CC1(C)CCC[C@H](Cc2ccccc2)N(c2nc(N3CCOCC3)cc(=O)[nH]2)C1 [Example 245]
4. C[C@H]1CCCN(c2nc(N3CCOCC3)cc(=O)[nH]2)[C@@H](Cc2ccccc2)C1 [Example 233]

Response given:
["16.6 nM", "10.8 nM", "17.3 nM", "1.2 nM"]
